The reported numbers originate from ChEMBL document CHEMBL3044804.

System: Pieris brassicae
assay.summary: Insecticidal activity against fourth-instar larvae of Pieris brassicae assessed as mortality per insect after 5 days
Format: functional
Answer each item with its documented LD50.
Report as: number unit

Consider the reported LD50 for these compounds:
1. C#CCOc1cc2c(c(C)c1OC)C=CC(C)(C)O2 ... 29.9 µg
2. CCOc1c(OC)cc2c(c1C)C=CC(C)(C)O2 ... 71 µg
3. CCOc1cc2c(c(C)c1OC)C=CC(C)(C)O2 ... 88.3 µg
4. CCOc1cc2c(cc1OC)C=CC(C)(C)O2 ... 24.5 µg
5. CCC(C)Oc1cc2c(c(C)c1OC)C=CC(C)(C)O2 (centres undefined) ... 20 µg

List the reported LD50 of each compound below.
1. CCCOc1cc2c(c(C)c1OC)C=CC(C)(C)O2
2. COc1cc2c(c(C)c1OC)C=CC(C)(C)O2

Result ::
32.7 µg
96.5 µg

Report LD50 for each item below.
1. COc1c(OC2CCCC2)cc2c(c1C)C=CC(C)(C)O2
2. COc1cc2c(cc1OC)OC(C)(C)C=C2

Result ::
1. 22.4 µg
2. 39.5 µg

###

Tested on: Oncopeltus fasciatus
assay.summary: Morphogenetic activity against fourth-instar nymphs of Oncopeltus fasciatus assessed as occurrence of precocious metamorphosis at 3 ug/cm'2
Format: functional
Assign Activity to each entry below.
Answers are plain numbers, in %.

Consider the following illustrative entries.
1. COc1cc2c(c(C)c1OC)C=CC(C)(C)O2 ... 45
2. CCOc1c(OC)cc2c(c1C)C=CC(C)(C)O2 ... 37.5
3. COc1cc2c(cc1OC)OC(C)(C)C=C2 ... 27.5

For each of the items listed, what is its Activity?
1. CCCOc1cc2c(c(C)c1OC)C=CC(C)(C)O2
2. CCC(C)Oc1cc2c(c(C)c1OC)C=CC(C)(C)O2 (stereo not drawn)
3. CCOc1cc2c(cc1OC)C=CC(C)(C)O2
4. C#CCOc1cc2c(c(C)c1OC)C=CC(C)(C)O2

Result ::
[80, 0, 5, 0]

Query :: Reported Activity, compound CCOc1cc2c(c(C)c1OC)C=CC(C)(C)O2 : ____
Result :: 95

###

Test system: Oncopeltus fasciatus
assay.summary: Morphogenetic activity against fifth-instar nymphs of Oncopeltus fasciatus assessed as occurrence of precocious metamorphosis at 3 ug/cm'2
Format: functional
measured.metric: Activity (%)
Numbers only, in %.

1) COc1cc2c(c(C)c1OC)C=CC(C)(C)O2 ... 0

For each of the compounds below, state Activity.
1. C#CCOc1cc2c(c(C)c1OC)C=CC(C)(C)O2
2. CCC(C)Oc1cc2c(c(C)c1OC)C=CC(C)(C)O2 (configuration not stated)
3. CCOc1cc2c(c(C)c1OC)C=CC(C)(C)O2
4. CCCOc1cc2c(c(C)c1OC)C=CC(C)(C)O2
5. CCOc1cc2c(cc1OC)C=CC(C)(C)O2
6. COc1cc2c(cc1OC)OC(C)(C)C=C2

Result ::
1. 20
2. 37.5
3. 0
4. 0
5. 15
6. 5
